system: P388 leukemia ip, CD2F1 mice, survival T/C; assay: NCI In Vivo Anticancer Drug Screen. Data for tumor model P388 Leukemia (intraperitoneal) in CD2F1 (CDF1) mice; settings: endpoint: median survival time; dose: 25.0 mg/kg/injection; schedule: Q01DX001 (ip); vehicle: saline; higher = longer survival
Toxic doses and inconclusive results are not listed.
For each of the compounds below, state its T/C.

Look over these answered cases.
>>> print(df.to_string())
                                   compound  metric_name    value_reported
0                        CN(C)CCSc1nnc(N)s1          T/C  108 % of control
1  OCC1OC(n2cnc3cncnc32)C(O)C1O (centres undefined)          T/C  114 % of control
2  O=C1C2OC2C(O)(CCN(Cc2ccc3c(c2)OCO3)C(=O)C(F)(F)F)C2OC12 (centres undefined)          T/C  106 % of control

Here is another compound to look at.
GET /value?item= CCOC(=O)Nc1cc2c(c(N)n1)N=C(c1ccc(N)cc1)CN2 &field=T/C returns 117 % of control

Provenance of the data: PubChem BioAssay AID330
